Test system: Human immunodeficiency virus 2
Assay: Antiviral activity against wild type HIV-2 ROD infected in human MT4 cells assessed as reduction of virus-induced cytopathic effect after 5 days by MTT assay
Format: functional, organism-based
Settings: Human immunodeficiency virus 2, ISOLATE ROD, MT4, 120 h
pEC50: −log10 of the molar value.
Property: pEC50; scope: individual compounds
measurement label: pEC50

>>> endpoint_value("Cc1cnc(Nc2ccc(C#N)cc2)nc1OCC(=O)Nc1ccc(C#N)cc1F")
"< 3.51"
>>> endpoint_value("Cc1cnc(Nc2ccc(C#N)cc2)nc1OCC(=O)Nc1ccc([N+](=O)[O-])cc1")
"< 4.18"
>>> endpoint_value("Cc1cnc(Nc2ccc(C#N)cc2)nc1OCC(=O)Nc1cccc(Cl)c1")
"< 3.84"
>>> endpoint_value("Cc1cnc(Nc2ccc(C#N)cc2)nc1OCC(=O)Nc1ccc(C#N)cc1")
"< 4.32"
>>> endpoint_value("N#Cc1ccc(Nc2nccc(OCC(=O)Nc3ccc(C#N)cc3F)n2)cc1")
"< 3.49"
>>> endpoint_value("COc1ccc(NC(=O)COc2ccnc(Nc3ccc(C#N)cc3)n2)cc1")
"< 3.48"
>>> endpoint_value("N#Cc1ccc(Nc2nccc(OCC(=O)Nc3cccc(Cl)c3)n2)cc1")
"< 3.48"
>>> endpoint_value("Cc1cnc(Nc2ccc(C#N)cc2)nc1OCC(=O)Nc1ccc(Br)cc1")
"< 4.46"
>>> endpoint_value("Cc1cc(OCC(=O)Nc2ccc([N+](=O)[O-])cc2)nc(Nc2ccc(C#N)cc2)n1")
"< 3.51"
>>> endpoint_value("Cc1cc(OCC(=O)Nc2ccc(F)cc2)nc(Nc2ccc(C#N)cc2)n1")
"< 3.48"
>>> endpoint_value("N#Cc1ccc(Nc2nccc(OCC(=O)Nc3ccc(F)cc3)n2)cc1")
"< 3.46"
>>> endpoint_value("N#Cc1ccc(Nc2nccc(OCC(=O)Nc3ccc(Cl)cc3)n2)cc1")
3.79
>>> endpoint_value("Cc1cc(C#N)cc(C)c1Oc1nc(Nc2ccc(C#N)cc2)nc(N)c1Br [ETRAVIRINE]")
"< 4.88"
>>> endpoint_value("Cc1cc(OCC(=O)Nc2ccc(C#N)cc2)nc(Nc2ccc(C#N)cc2)n1")
"< 3.49"

Values were extracted from ChEMBL document CHEMBL3396972.
